assay: Stability tests of stabilized Idarubicin HCl, 1% w/v aqueous solution with NH4OAc or NH4OAc + AcOH; format: physicochemical; conditions: NH4OAc 1.5% mol + AcOH 1.5% mol, pH 4.94, 20° C., 315 hr
valueType: aglycone (%)
Express the result in % but write the number alone.

// sample CC(=O)[C@]1(O)Cc2c(O)c3c(c(O)c2[C@@H](O[C@H]2C[C@@H](N)[C@H](O)C(C)O2)C1)C(=O)c1ccccc1C3=O.Cl (stereo partly shown) [Idarubicin HCl, Idarubicin hydrochloride] , its aglycone was 0.6

----------
test: Stability tests of stabilized Idarubicin HCl, 1% w/v aqueous solution with NH4OAc or NH4OAc + AcOH; format: physicochemical; conditions: NH4OAc 0.5% mol + AcOH 0.5% mol, pH 5.08, 4° C., 25 hr
valueType: bis-anhydro (%)
Provide only the numeric value, understood in %.

Short answer for CC(=O)[C@]1(O)Cc2c(O)c3c(c(O)c2[C@@H](O[C@H]2C[C@@H](N)[C@H](O)C(C)O2)C1)C(=O)c1ccccc1C3=O.Cl (stereo partly shown) [Idarubicin HCl, Idarubicin hydrochloride] : bis-anhydro was 0.04

----------
experiment: Stability tests of stabilized Idarubicin HCl, 1% w/v aqueous solution with NH4OAc or NH4OAc + AcOH; assay type: physicochemical; conditions: NH4OAc 1.5% mol + AcOH 1.5% mol, pH 4.94, 20° C., 21 hr
valueType: aglycone (%)
Please reply with the bare figure in % and do not write the unit itself.

The reported aglycone of the molecule CC(=O)[C@]1(O)Cc2c(O)c3c(c(O)c2[C@@H](O[C@H]2C[C@@H](N)[C@H](O)C(C)O2)C1)C(=O)c1ccccc1C3=O.Cl (stereo partly shown) [Idarubicin HCl, Idarubicin hydrochloride] was 0.59

----------
Assay: Stability tests of stabilized Idarubicin HCl, 1% w/v aqueous solution with NH4OAc or NH4OAc + AcOH
Format: physicochemical
Settings: NH4OAc 0.5% mol + AcOH 0.5% mol, pH 5.08, 20° C., 19 hr
Experimental: Starting product was idarubicin hydrochloride, 1% w/v aqueous solution, the analysis of which is shown in the data reported at t=0. 3% mol of NH4OAc with respect to idarubicin hydrochloride was added to the solution at t=0 and the solution was incubated at 4° C. for the indicated time. Starting product was idarubicin hydrochloride, 1% w/v aqueous solution, the analysis of which is shown in the data reported at t=0. […]
valueType: bis-anhydro (%)
Report the value in % with no unit label.

CC(=O)[C@]1(O)Cc2c(O)c3c(c(O)c2[C@@H](O[C@H]2C[C@@H](N)[C@H](O)C(C)O2)C1)C(=O)c1ccccc1C3=O.Cl (stereo partly shown) [Idarubicin HCl, Idarubicin hydrochloride] yielded bis-anhydro of 0.07

----------
experiment: Stability tests of stabilized Idarubicin HCl, 1% w/v aqueous solution with NH4OAc or NH4OAc + AcOH; format: physicochemical; settings: NH4OAc 0.5% mol + AcOH 0.5% mol, pH 5.08, 4° C., 95 hr
valueType: bis-anhydro (%)
Numeric only. Scale: %

Briefly, bis-anhydro measured for CC(=O)[C@]1(O)Cc2c(O)c3c(c(O)c2[C@@H](O[C@H]2C[C@@H](N)[C@H](O)C(C)O2)C1)C(=O)c1ccccc1C3=O.Cl (stereo partly shown) [Idarubicin HCl, Idarubicin hydrochloride] : 0.05

----------
assay: Stability tests of stabilized Idarubicin HCl, 1% w/v aqueous solution with NH4OAc or NH4OAc + AcOH; assay type: physicochemical; conditions: NH4OAc 1.5% mol + AcOH 1.5% mol, pH 4.94, 4° C., 26 hr
valueType: aglycone (%)
State just the number; it will be interpreted in %.

Sample CC(=O)[C@]1(O)Cc2c(O)c3c(c(O)c2[C@@H](O[C@H]2C[C@@H](N)[C@H](O)C(C)O2)C1)C(=O)c1ccccc1C3=O.Cl (stereo partly shown) [Idarubicin HCl, Idarubicin hydrochloride] ; aglycone observed: 0.59

----------
experiment: Stability tests of stabilized Idarubicin HCl, 1% w/v aqueous solution with NH4OAc or NH4OAc + AcOH; format: physicochemical; conditions: NH4OAc 1.5% mol + AcOH 1.5% mol, pH 4.94, 4° C., 314 hr
valueType: bis-anhydro (%)
Dear colleague, please return just the value in %, with no unit written.

Reported bis-anhydro of CC(=O)[C@]1(O)Cc2c(O)c3c(c(O)c2[C@@H](O[C@H]2C[C@@H](N)[C@H](O)C(C)O2)C1)C(=O)c1ccccc1C3=O.Cl (stereo partly shown) [Idarubicin HCl, Idarubicin hydrochloride] : 0.06

----------
assay: Stability tests of stabilized Idarubicin HCl, 1% w/v aqueous solution with NH4OAc or NH4OAc + AcOH; format: physicochemical; conditions: NH4OAc 0.5% mol + AcOH 0.5% mol, pH 5.08, 20° C., 90 hr
valueType: bis-anhydro

The molecule CC(=O)[C@]1(O)Cc2c(O)c3c(c(O)c2[C@@H](O[C@H]2C[C@@H](N)[C@H](O)C(C)O2)C1)C(=O)c1ccccc1C3=O.Cl (stereo partly shown) [Idarubicin HCl, Idarubicin hydrochloride] showed bis-anhydro equal to 0.18%

----------
test: Stability tests of stabilized Idarubicin HCl, 1% w/v aqueous solution with NH4OAc or NH4OAc + AcOH; assay type: physicochemical; settings: NH4OAc 1.5% mol + AcOH 1.5% mol, pH 4.94, 20° C., 21 hr
valueType: bis-anhydro
Param answer (str): number followed by unit.

The compound CC(=O)[C@]1(O)Cc2c(O)c3c(c(O)c2[C@@H](O[C@H]2C[C@@H](N)[C@H](O)C(C)O2)C1)C(=O)c1ccccc1C3=O.Cl (stereo partly shown) [Idarubicin HCl, Idarubicin hydrochloride] showed bis-anhydro equal to 0.06%

----------
experiment: Stability tests of stabilized Idarubicin HCl, 1% w/v aqueous solution with NH4OAc or NH4OAc + AcOH; assay type: physicochemical; details: NH4OAc 1.5% mol + AcOH 1.5% mol, pH 4.94, 4° C., t = 0
valueType: aglycone (%)
Number only, in %; omit the unit.

# molecule CC(=O)[C@]1(O)Cc2c(O)c3c(c(O)c2[C@@H](O[C@H]2C[C@@H](N)[C@H](O)C(C)O2)C1)C(=O)c1ccccc1C3=O.Cl (stereo partly shown) [Idarubicin HCl, Idarubicin hydrochloride] ; its aglycone = 0.59

----------
experiment: Stability tests of stabilized Idarubicin HCl, 1% w/v aqueous solution with NH4OAc or NH4OAc + AcOH; assay type: physicochemical; conditions: NH4OAc 1.5% mol + AcOH 1.5% mol, pH 4.94, 20° C., t = 0
valueType: aglycone (%)
Unit % implied. Number only.

Entry CC(=O)[C@]1(O)Cc2c(O)c3c(c(O)c2[C@@H](O[C@H]2C[C@@H](N)[C@H](O)C(C)O2)C1)C(=O)c1ccccc1C3=O.Cl (stereo partly shown) [Idarubicin HCl, Idarubicin hydrochloride] — recorded aglycone = 0.59

----------
assay: Stability tests of stabilized Idarubicin HCl, 1% w/v aqueous solution with NH4OAc or NH4OAc + AcOH; assay type: physicochemical; conditions: NH4OAc 0.5% mol + AcOH 0.5% mol, pH 5.08, 20° C., 90 hr
valueType: aglycone
Provide a numeric answer, followed by its unit.

CC(=O)[C@]1(O)Cc2c(O)c3c(c(O)c2[C@@H](O[C@H]2C[C@@H](N)[C@H](O)C(C)O2)C1)C(=O)c1ccccc1C3=O.Cl (stereo partly shown) [Idarubicin HCl, Idarubicin hydrochloride] yielded aglycone of 0.59%

----------
test: Stability tests of stabilized Idarubicin HCl, 1% w/v aqueous solution with NH4OAc or NH4OAc + AcOH; type: physicochemical; details: NH4OAc 1.5% mol + AcOH 1.5% mol, pH 4.94, 20° C., 139 hr
valueType: aglycone (%)
Field: numeric (%). Do not append units.

# aglycone (molecule: CC(=O)[C@]1(O)Cc2c(O)c3c(c(O)c2[C@@H](O[C@H]2C[C@@H](N)[C@H](O)C(C)O2)C1)C(=O)c1ccccc1C3=O.Cl (stereo partly shown) [Idarubicin HCl, Idarubicin hydrochloride] ) is 0.59

----------
assay: Stability tests of stabilized Idarubicin HCl, 1% w/v aqueous solution with NH4OAc or NH4OAc + AcOH; format: physicochemical; conditions: NH4OAc 0.5% mol + AcOH 0.5% mol, pH 5.08, 4° C., 95 hr
valueType: aglycone (%)
Respond numerically; units are % and should not be typed.

Documented aglycone of CC(=O)[C@]1(O)Cc2c(O)c3c(c(O)c2[C@@H](O[C@H]2C[C@@H](N)[C@H](O)C(C)O2)C1)C(=O)c1ccccc1C3=O.Cl (stereo partly shown) [Idarubicin HCl, Idarubicin hydrochloride] : 0.59

----------
test: Stability tests of stabilized Idarubicin HCl, 1% w/v aqueous solution with NH4OAc or NH4OAc + AcOH; type: physicochemical; details: NH4OAc 0.5% mol + AcOH 0.5% mol, pH 5.08, 20° C., 19 hr
valueType: aglycone
Please answer in the form of a number followed by its unit of measurement.

CC(=O)[C@]1(O)Cc2c(O)c3c(c(O)c2[C@@H](O[C@H]2C[C@@H](N)[C@H](O)C(C)O2)C1)C(=O)c1ccccc1C3=O.Cl (stereo partly shown) [Idarubicin HCl, Idarubicin hydrochloride] yielded aglycone of 0.59%
